target under test: T1, human glucose-dependent insulinotropic peptide receptor (human, UniProt P48546 22-466)
T1 sequence (looked up): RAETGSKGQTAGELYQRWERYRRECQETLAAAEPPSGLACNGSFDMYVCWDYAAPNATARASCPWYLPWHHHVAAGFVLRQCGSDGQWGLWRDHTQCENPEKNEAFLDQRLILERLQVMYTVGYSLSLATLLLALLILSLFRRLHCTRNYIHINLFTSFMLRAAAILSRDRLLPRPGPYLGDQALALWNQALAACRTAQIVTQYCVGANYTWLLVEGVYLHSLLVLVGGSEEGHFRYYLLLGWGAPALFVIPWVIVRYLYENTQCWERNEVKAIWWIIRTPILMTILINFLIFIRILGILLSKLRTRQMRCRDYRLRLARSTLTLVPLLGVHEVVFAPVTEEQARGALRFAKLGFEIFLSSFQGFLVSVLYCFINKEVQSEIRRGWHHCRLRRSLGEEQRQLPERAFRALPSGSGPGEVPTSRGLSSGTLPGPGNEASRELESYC
method description: cell-based or functional assay
Field: hGIPR cAMP Rel EC50. Provide a value for each of the binders that follow.
Express it in nM; write the number only.

Give the reported hGIPR cAMP Rel EC50 for this binder. YXEGTXISDYSIXLDXKHQXDFVEXLLETGPSSGAPPPS (Aib2; Iva6; αMeL13; Orn16; K17((2-[2-(2-Amino-ethoxy)-ethoxy]-acetyl)2-(γ-Glu)-CO-(CH2)18-CO2H); Aib20; 4-Pal25; C-terminal amide) [Example 77]
0.0265

Give the reported hGIPR cAMP Rel EC50 for this binder. YXEGTXISDYSIXLDKKHQXDFVEXLLEAGPSSGAPPPS (Aib2; Iva6; αMeL13; K17((2-[2-(2-Amino-ethoxy)-ethoxy]-acetyl)2-(γ-Glu)-CO-(CH2)18-CO2H); Aib20; 4-Pal25; C-terminal amide) [Example 88]
0.0031

Give the reported hGIPR cAMP Rel EC50 for this binder. YXEGTFISDYSILLDKKAQXDFVNWLLAQGPSSGAPPPS (D-Ala2; K17((2-[2-(2-Amino-ethoxy)-ethoxy]-acetyl)2-(γ-Glu)-CO-(CH2)18-CO2H); Aib20; C-terminal amide) [Example 1]
0.0476

Give the reported hGIPR cAMP Rel EC50 for this binder. YXEGTXISDYSIXLDKKHQXDFVEXLLAGGPSSGAPPPS (Aib2; Iva6; αMeL13; K17((2-[2-(2-Amino-ethoxy)-ethoxy]-acetyl)2-(γ-Glu)-CO-(CH2)18-CO2H); Aib20; 4-Pal25; C-terminal amide) [Example 55]
0.017

Give the reported hGIPR cAMP Rel EC50 for this binder. YXEGTFISDYSILLDKKAQXDFVEWLLAQGPSSGAPPPS (D-Ala2; K17((2-[2-(2-Amino-ethoxy)-ethoxy]-acetyl)2-(γ-Glu)-CO-(CH2)16-CO2H); Aib20; C-terminal amide) [Example 16]
0.00937

Measured values drawn from patent US20210032299A1 for this set.
